Values compiled from ChEMBL document CHEMBL3259631.

- Method summary: Metabolic stability in mouse plasma assessed as compound remaining at 1 uM after 60 mins by LC-MS/MS analysis
- Assay type: ADME, cell-free
- Measurement parameters: read-out: Stability

| Smiles str | remaining at 1 h, 1 µM (%) |
| --- | --- |
| CCn1c(CCCc2ccc(OC(C)(C)C(=O)NS(=O)(=O)c3ccc(C(C)C)cc3)cc2)nn(Cc2ccc(C(C)(C)C)cc2)c1=O | 81.9 |
| CCn1c(CCCc2ccc(OC(C)(C)C(=O)NS(=O)(=O)c3cccnc3)cc2)nn(Cc2ccc(C(C)(C)C)cc2)c1=O | 75.2 |
| CCn1c(CCCc2ccc(OC(C)(C)C(=O)NS(=O)(=O)C3=CCOC=C3)cc2)nn(Cc2ccc(C(C)(C)C)cc2)c1=O | 86.5 |
| CCn1c(CCCc2ccc(CC(C)(C)C(=O)NS(=O)(=O)c3ccccc3)cc2)nn(Cc2ccc(C(C)(C)C)cc2)c1=O | 62.3 |
